system.name: 5-hydroxytryptamine receptor 3A (Homo sapiens, UniProt P46098)
Sequence (P46098 whole entry): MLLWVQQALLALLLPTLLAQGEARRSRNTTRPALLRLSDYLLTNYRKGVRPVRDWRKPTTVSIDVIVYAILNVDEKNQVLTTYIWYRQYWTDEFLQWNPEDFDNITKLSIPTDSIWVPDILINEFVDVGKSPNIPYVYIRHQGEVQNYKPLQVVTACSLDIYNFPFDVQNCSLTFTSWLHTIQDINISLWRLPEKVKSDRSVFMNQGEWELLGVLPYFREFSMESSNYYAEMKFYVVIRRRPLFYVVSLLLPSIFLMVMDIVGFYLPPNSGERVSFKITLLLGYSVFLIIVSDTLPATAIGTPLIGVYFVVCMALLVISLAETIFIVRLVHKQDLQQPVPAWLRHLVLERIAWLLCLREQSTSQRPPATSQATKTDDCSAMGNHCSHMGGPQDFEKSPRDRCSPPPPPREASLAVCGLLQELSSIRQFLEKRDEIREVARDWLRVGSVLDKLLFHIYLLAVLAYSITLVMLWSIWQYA
procedure.details: Inhibition of 5HT3 receptor
measured.property: pKi
pKi is defined as minus the log10 of a concentration measured in mol/L.

What value of pKi has been recorded for this entry: `O=C(N[C@@H]1CN2CCC1CC2)c1n[nH]c2ccccc12`
8.70

* * *

system.name: Neuronal acetylcholine receptor subunit alpha-7 (Homo sapiens)
Sequence (P36544 whole entry): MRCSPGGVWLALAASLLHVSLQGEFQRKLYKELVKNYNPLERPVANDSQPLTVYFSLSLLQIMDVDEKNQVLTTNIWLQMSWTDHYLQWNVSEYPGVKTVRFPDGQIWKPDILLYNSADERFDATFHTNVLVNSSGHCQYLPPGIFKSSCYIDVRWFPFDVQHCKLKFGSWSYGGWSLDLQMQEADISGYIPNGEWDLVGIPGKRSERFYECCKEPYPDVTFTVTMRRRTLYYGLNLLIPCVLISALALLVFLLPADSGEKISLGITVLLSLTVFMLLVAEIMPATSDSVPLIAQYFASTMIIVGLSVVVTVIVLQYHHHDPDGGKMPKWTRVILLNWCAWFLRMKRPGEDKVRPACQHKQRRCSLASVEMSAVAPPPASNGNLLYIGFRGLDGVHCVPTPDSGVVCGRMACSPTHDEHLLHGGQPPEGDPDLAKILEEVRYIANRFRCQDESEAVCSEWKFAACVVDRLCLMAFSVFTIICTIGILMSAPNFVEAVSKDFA
procedure.details: Agonist activity at human alpha7 nAChR expressed in Xenopus oocytes assessed as induction of inward current
Type: functional, cell-based, Oocyte
condition: read-out: EC50
measured.property: pEC50
pEC50 is defined as minus the log10 of a concentration measured in mol/L.

What value of pEC50 has been recorded for this entry: `C[C@H](OC(=O)N[C@@H]1CN2CCC1CC2)c1ccccc1F`
5.70

* * *

Entries and their Ki
system.name: 5-hydroxytryptamine receptor 3A (Homo sapiens)
procedure.details: Binding affinity to 5HT3 receptor
Quick note: give the figure in µM, leave out the unit.

Illustrative cases are given below, each with its answer.
[
  {
    "entry.smiles": "Clc1cnc2nc(N3CCN4CCC3CC4)oc2c1",
    "measured.property": "Ki",
    "endpoint.value": 1.37
  },
  {
    "entry.smiles": "Cc1nc2nc(N3CCN4CCC3CC4)oc2cc1Cl",
    "measured.property": "Ki",
    "endpoint.value": 0.244
  },
  {
    "entry.smiles": "O=C(N[C@H]1CN2CCC1CC2)c1ccc2occc2c1",
    "measured.property": "Ki",
    "endpoint.value": 0.663
  },
  {
    "entry.smiles": "O=C(N[C@H]1CN2CCC1CC2)c1cc(Cl)cc2c1OCC2",
    "measured.property": "Ki",
    "endpoint.value": 0.001
  },
  {
    "entry.smiles": "O=C(Oc1ccccc1)N1CCN2CCC1CC2",
    "measured.property": "Ki",
    "endpoint.value": 3.99
  },
  {
    "entry.smiles": "c1cnc2nc(N3CCN4CCC3CC4)oc2c1",
    "measured.property": "Ki",
    "endpoint.value": 0.579
  },
  {
    "entry.smiles": "O=C(N[C@H]1CN2CCC1CC2)c1ccc2ccoc2c1",
    "measured.property": "Ki",
    "endpoint.value": 0.31
  },
  {
    "entry.smiles": "O=C(N[C@H]1CN2CCC1CC2)c1ccc2ccsc2c1",
    "measured.property": "Ki",
    "endpoint.value": 0.174
  }
]

Consider now this further compound.
What value of Ki has been recorded for this entry: `c1ccc2oc(N3CCN4CCC3CC4)nc2c1`
0.013
